Source of measurements: patent US8093393B2

Test system: UM-SCC-22A cells
Test Name: MTT cell survival assay and isobologram studies
Type: cell-based, human
Particulars: Homo sapiens; UM-SCC-22A, MTT; read-out: IC50 of chemotherapeutic agents
Form field: IC50 (one value per entry).

Compound	IC50
CN(Cc1cnc2nc(N)nc(N)c2n1)c1ccc(C(=O)N[C@@H](CCC(=O)O)C(=O)O)cc1 [MTX, methotrexate, reference compound]	100 to 250 nM
CC(=O)O[C@H]1C(=O)[C@@]2(C)[C@H]([C@H](OC(=O)c3ccccc3)[C@]3(O)C[C@H](OC(=O)[C@H](O)[C@@H](NC(=O)c4ccccc4)c4ccccc4)C(C)=C1C3(C)C)[C@]1(OC(C)=O)CO[C@@H]1C[C@@H]2O [PAX, paclitaxel, reference compound]	1000 to 100000 nM

###

System: MCF7 breast carcinoma cells
Test Name: Cell proliferation and viability, Trypan blue exclusion assay
Format: cell-based
Particulars: 48 h treatment; listed as LCL-275; read-out: IC50, inhibitory effect on MCF7 cell growth
Measure Name: IC50 (µM)

Compound	Measure Name	Endpoint Unit	Value Reported
CCCCCCCCCCCCC/C=C/[C@@H](O)[C@H](CO)NC(=O)c1ccc[n+](CCCCCCCC)c1.[Br-] [LCL275]	IC50	µM	15

###

System: UM-SCC-22A cells
Test Name: MTT cell survival assay and isobologram studies
Format: cell-based, human
Particulars: UM-SCC-22A, EpiLife medium, 96 hr; read-out: IC50, cell growth in EpiLife medium
Measure Name: IC50

Compound	Value Reported
CCCCCCCCCCCCCC=CC(O)C(CO)NC(=O)CCCCC[n+]1ccccc1 (stereo not shown)	> 2 µM
